# credit: the RNAGym collection of RNA variant scans (doi:10.1126/science.aae0568)

B1: tRNA (parent)
chain: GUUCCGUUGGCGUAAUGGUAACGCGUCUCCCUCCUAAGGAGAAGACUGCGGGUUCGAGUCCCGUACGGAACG

variants of: B1; assay: yeast fitness relative to wild type (ratio to wild type); higher = fitter; tRNA-Arg(CCU), competitive growth, 37 C, YPD
Fewer inactive variants are shown than the library holds.
Below, each entry is listed with its recorded yeast fitness.

Variant key	Rel	yeast fitness
U16C G18A C24G A45U C62A	≤	0.5
U2C G38A	=	0.901
A20U C22U C33A C66A	≤	0.5
C4G G9C G52A G63C	≤	0.5
C24A C34U A40C	≤	0.5
C34G C61U	=	0.602
G39C A70G	=	0.915
C4G C11A C30G G67A	≤	0.5
C5A G17C G18C G58A U59G	=	0.535
A20C C34A C62U	≤	0.5
U3G C22A C24U U35G A45U A65U A70U	≤	0.5
C29U C66U	=	0.796
U16C A36U G63A	=	0.772
U2G U16G C27A A36C A70C	≤	0.5
U13A U47C A69U	=	0.743
G39A C61G	=	0.585
C5A C33U	=	0.603
C4U A15U G68A	≤	0.5
C34G A37U C49G	=	0.576
U8A G10C A20U G41U G51C	≤	0.5
C29G A37C A42U A57G G67A	≤	0.5
U28C C29G C62U	≤	0.5
